Tested on: Fibroblast
Experiment: Multiplex assay against human fibroblast
Format: toxicity, cell-based
Conditions: 24 h, 1 µM, compound concentration 1 uM, replicate 2
The entries below come with measured Population Normal (%) values attached.
// return the numeric value with its unit appended

Past entries and their recorded results:
GET /values?readout=Population Normal (%)&item= CCn1c(-c2nonc2N)nc2cnc(Oc3cccc(NC(=O)c4ccc(OCCN5CCOCC5)cc4)c3)cc21 [GSK-269962A]
97%

GET /values?readout=Population Normal (%)&item= "CN(C)CCOc1ccc(-c2nc(-c3ccncc3)c(-c3ccc4c(c3)CC/C4=N\O)[nH]2)cc1"
64%

GET /values?readout=Population Normal (%)&item= "CC(C)N1CCC(C)(C)c2cc(C#Cc3ccc(C(=O)O)cc3)ccc21"
95%

Now consider the entry below.
GET /values?readout=Population Normal (%)&item= "Nc1ccc(C(=O)Nc2cccc(-c3nc(N4CCOCC4)c4oc5ncccc5c4n3)c2)cn1"
95%

====

System: U2OS
Assay: Incucyte cell viability with U2OS; also: filed as whole numbers so only -1 and 0 and 1 occur
Assay type: toxicity, cell-based
Conditions: human, 18 h, 10 µM, compound concentration 10 uM, replicate number 1, timepoint 18 hours
property: Growth Rate
API doc: respond with a numeric literal and nothing else, no unit.

Past entries and their recorded results:
GET /values?readout=Growth Rate&item= "Cc1cc(C)cc(C(=O)N(C)[C@H](Cc2ccc(-c3ccccc3)cc2)C(=O)N[C@@H](Cc2c[nH]c3ccccc23)C(=O)O)c1"
0

GET /values?readout=Growth Rate&item= "CC(=O)c1cc(-c2cc(C(=O)NC3CC3)ccc2C)c2ncccn12"
0

GET /values?readout=Growth Rate&item= "Cn1cc(-c2ccc3occ(-c4ccccc4-c4ccccc4)c3n2)cn1"
0

GET /values?readout=Growth Rate&item= "O=C(O)c1ccc2c(c1)nc(Nc1cccc(Cl)c1)c1ccncc12"
0

GET /values?readout=Growth Rate&item= "Cc1cc2c(cc1N1C(=O)c3cccc4c(CCCO)ccc(c34)C1=O)n(C)c(=O)n2C"
0

Now consider the entry below.
GET /values?readout=Growth Rate&item= "Cc1cc(C)c(N)c(C#Cc2cccc(F)c2)n1.Cl"
0

====

Test system: U2OS
Test: Multiplex assay against U2OS
Format: toxicity, cell-based
Conditions: human, 24 h, 10 µM, compound concentration 10 uM, replicate 2
Classification field: enter y for Population Hoechst High Intensity Objects (%) values not below 9%, n for values below it.

Some solved cases for reference:
Decide: is the reported value of Population Hoechst High Intensity Objects (%) for "CCOc1cc(N2CCC(O)CC2)ccc1Nc1ncc2c(n1)N(C1CCCC1)CCC(=O)N2C" equal to or greater than 9%?
n

Decide: is the reported value of Population Hoechst High Intensity Objects (%) for "Cl.Cl.NC1(c2ccc(-c3nc4ccn5c(=O)[nH]nc5c4cc3-c3ccccc3)cc2)CCC1" equal to or greater than 9%?
y

Decide: is the reported value of Population Hoechst High Intensity Objects (%) for "O=C(O)c1ccc2c(c1)nc(Nc1cccc(Cl)c1)c1ccncc12" equal to or greater than 9%?
n

Decide: is the reported value of Population Hoechst High Intensity Objects (%) for "CCCn1c(=O)c2[nH]c(C34CC5CC(CC3C5)C4)nc2n(CCC)c1=O" equal to or greater than 9%?
n

Here is another molecule to look at.
Decide: is the reported value of Population Hoechst High Intensity Objects (%) for "Nc1ccc(C(=O)Nc2cccc(-c3nc(N4CCOCC4)c4oc5ncccc5c4n3)c2)cn1" equal to or greater than 9%?
y
